// data source = ChEMBL document CHEMBL1133556

Recorded logD values for a group of molecules are listed next.
details: octanol/water
Description: Partition coefficient (logD) (chloroform/buffer)
Just the number, please, no unit attached.

Examples from the recorded data:
NS(=O)(=O)c1ccc(N/C(S)=N/C(C(=O)O)c2ccccc2)cc1 (stereo not given) : 3.652
NC(=O)CC(/N=C(\S)Nc1ccc(S(N)(=O)=O)cc1)C(=O)O (stereo not given) : 1.759
CC(=O)/N=c1/sc(S(N)(=O)=O)nn1C [METHAZOLAMIDE] : 0.06
NS(=O)(=O)c1nnc(NS(=O)(=O)c2ccccc2)s1 [BENZOLAMIDE] : 0.00001

Then this molecule:
QUERY: logD for NS(=O)(=O)c1ccc(N/C(S)=N/C(CS)C(=O)O)cc1 (stereo not given) ?
RESULT: 0.09
